test_target: T1, streptavidin-R-phycoerythrin (UniProt P22629 37-163, limits assumed)
T1 construct: Bought conjugate; also called SA-PE; fluorescently-conjugated streptavidin probe
T1 sequence (P22629 37-163 limits assumed): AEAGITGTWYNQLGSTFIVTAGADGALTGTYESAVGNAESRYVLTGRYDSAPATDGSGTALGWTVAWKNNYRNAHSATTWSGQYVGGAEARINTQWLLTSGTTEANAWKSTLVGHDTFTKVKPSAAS
assay_text: flow cytometry of E. coli displaying the construct, 100 nM SA-PE; 50 minutes of expression
value_type: Relative Display level (fold fluorescence above background)
Could you give the number and then its unit, please?

These recorded examples may help you get a feel for the data.
| binder | result |
| --- | --- |
| CPX-5X-4 displaying SApep at the N-terminus (other) GQSGQAECHPQGPPCIEGRKGGQSGQSGDYNKNQYYGITAGPAYRINDWASIYGVVGVGYGKFQTTEYPTYKHDTSDYGFSYGAGLQFNPMENVALDFSYEQSRIRSVDVGTWIASVGYRFGSQSKATSTVTGGYAQSDAQGQMNKMGGFNLKYRYEEDNSPLGVIGSFTYTEKSRTAS | 36 fold above background |
| CPX-6X-2 displaying SApep at the N-terminus (other) GQSGQAECHPQGPPCIEGRKGGQSGQSGDYNKNQYYGITAGPAYRINDWASIYGVVGVGYGKFQTTEYPTYKHDTSDYGFSYGAGLQFNPMENVALDFSYEQSRIRSVDVGTWIAGVGYRFGRRHYKATSTVTGGYAQSDAQGQMNKMGGFNLKYRYEEDNSPLGVIGSFTYTEKSRTAS | 28 fold above background |
| CPX-4X-1 displaying SApep at the N-terminus (other) GQSGQAECHPQGPPCIEGRKGGQSGQSGDYNKNQYYGITAGPAYRINDWASIYGVVGVGYGKFQTTEYPTYKHDTSDYGFSYGAGLQFNPMENVALDFSYEQSRIRSVDVGTWIAGVGYRFGSKRATSTVTGGYAQSDAQGQMNKMGGFNLKYRYEEDNSPLGVIGSFTYTEKSRTAS | 18 fold above background |
| CPX-5X-2 displaying SApep at the N-terminus (other) GQSGQAECHPQGPPCIEGRKGGQSGQSGDYNKNQYYGITAGPAYRINDWASIYGVVGVGYGKFQTTEYPTYKHDTSDYGFSYGAGLQFNPMENVALDFSYEQSRIRSVDVGTWIAGVGYRFGRKRNATSTVTGGYAQSDAQGQMNKMGGFNLKYRYEEDNSPLGVIGSFTYTEKSRTAS | 22 fold above background |
| CPX-4X-2 displaying SApep at the N-terminus (other) GQSGQAECHPQGPPCIEGRKGGQSGQSGDYNKNQYYGITAGPAYRINDWASIYGVVGVGYGKFQTTEYPTYKHDTSDYGFSYGAGLQFNPMENVALDFSYEQSRIRSVDVGTWIAGVGYRFGRQKATSTVTGGYAQSDAQGQMNKMGGFNLKYRYEEDNSPLGVIGSFTYTEKSRTAS | 14 fold above background |
| CPX-6X-4 displaying SApep at the N-terminus (other) GQSGQAECHPQGPPCIEGRKGGQSGQSGDYNKNQYYGITAGPAYRINDWASIYGVVGVGYGKFQTTEYPTYKHDTSDYGFSYGAGLQFNPMENVALDFSYEQSRIRSVDVGTWIASVGYRFGSKQSKATSTVTGGYAQSDAQGQMNKMGGFNLKYRYEEDNSPLGVIGSFTYTEKSRTAS | 38 fold above background |
| CPX-5X-3 displaying SApep at the N-terminus (other) GQSGQAECHPQGPPCIEGRKGGQSGQSGDYNKNQYYGITAGPAYRINDWASIYGVVGVGYGKFQTTEYPTYKHDTSDYGFSYGAGLQFNPMENVALDFSYEQSRIRSVDVGTWIVGVGYRFGATRRATSTVTGGYAQSDAQGQMNKMGGFNLKYRYEEDNSPLGVIGSFTYTEKSRTAS | 32 fold above background |
| CPX-4X-3 displaying SApep at the N-terminus (other) GQSGQAECHPQGPPCIEGRKGGQSGQSGDYNKNQYYGITAGPAYRINDWASIYGVVGVGYGKFQTTEYPTYKHDTSDYGFSYGAGLQFNPMENVALDFSYEQSRIRSVDVGTWIAGVGYRFSWPNATSTVTGGYAQSDAQGQMNKMGGFNLKYRYEEDNSPLGVIGSFTYTEKSRTAS | 15 fold above background |

Could you now look at the following binder, please?
Prompt: Please give the measured Relative Display level (fold fluorescence above background) for this binder: CPX-5X-1 displaying SApep at the N-terminus (other) GQSGQAECHPQGPPCIEGRKGGQSGQSGDYNKNQYYGITAGPAYRINDWASIYGVVGVGYGKFQTTEYPTYKHDTSDYGFSYGAGLQFNPMENVALDFSYEQSRIRSVDVGTWIAGVGYRFGRTRKATSTVTGGYAQSDAQGQMNKMGGFNLKYRYEEDNSPLGVIGSFTYTEKSRTAS
Completion: 24 fold above background
